Test system: rat heart tissue
Assay: GENECALLING differential gene expression analysis after dosing of serotonin modulating agents
Format: in vivo, Sprague Dawley rats
Settings: CARDIOTOX 100, GenBank L38717
test-readout: Effects on Transcription Level: Titin (fold)

[
  {
    "compound": "CCNC(C)Cc1cccc(C(F)(F)F)c1 (stereo not drawn)",
    "output-unit": "fold",
    "reported-measurement": "−1.6"
  },
  {
    "compound": "CNS(=O)(=O)Cc1ccc2[nH]cc(CCN(C)C)c2c1",
    "output-unit": "fold",
    "reported-measurement": "−2.1"
  },
  {
    "compound": "CCN[C@@H](C)Cc1cccc(C(F)(F)F)c1",
    "output-unit": "fold",
    "reported-measurement": "−2.0"
  },
  {
    "compound": "CN1C[C@H](C(=O)N[C@]2(C)O[C@@]3(O)[C@@H]4CCCN4C(=O)[C@H](Cc4ccccc4)N3C2=O)C[C@@H]2c3cccc4[nH]cc(c34)C[C@H]21 [dihydroergotamine]",
    "output-unit": "fold",
    "reported-measurement": "−5.4"
  }
]

----------
# key: entry, value: Effects on Transcription Level: Cytochrome c oxidase subunit IV
Tested on: rat heart tissue
Assay: GENECALLING differential gene expression analysis after dosing of serotonin modulating agents
Type: in vivo, Sprague Dawley rats
Settings: CARDIOTOX 96, GenBank X14209
test-readout: Effects on Transcription Level: Cytochrome c oxidase subunit IV

[
  {
    "compound": "CCN[C@@H](C)Cc1cccc(C(F)(F)F)c1",
    "system-tested": "rat heart tissue",
    "reported-measurement": "+10.0 fold"
  },
  {
    "compound": "CNCCC(Oc1ccc(C(F)(F)F)cc1)c1ccccc1 (stereo not drawn)",
    "system-tested": "rat heart tissue",
    "reported-measurement": "+8.0 fold"
  },
  {
    "compound": "CNS(=O)(=O)Cc1ccc2[nH]cc(CCN(C)C)c2c1",
    "system-tested": "rat heart tissue",
    "reported-measurement": "+10.0 fold"
  },
  {
    "compound": "CC(C)CC(N(C)C)C1(c2ccc(Cl)cc2)CCC1 (stereo not drawn)",
    "system-tested": "rat heart tissue",
    "reported-measurement": "+8.0 fold"
  },
  {
    "compound": "CN1C[C@H](C(=O)N[C@]2(C)O[C@@]3(O)[C@@H]4CCCN4C(=O)[C@H](Cc4ccccc4)N3C2=O)C[C@@H]2c3cccc4[nH]cc(c34)C[C@H]21 [dihydroergotamine]",
    "system-tested": "rat heart tissue",
    "reported-measurement": "+4.1 fold"
  },
  {
    "compound": "CCNC(C)Cc1cccc(C(F)(F)F)c1 (stereo not drawn)",
    "system-tested": "rat heart tissue",
    "reported-measurement": "+10.0 fold"
  }
]

----------
Test system: rat heart tissue
Experiment: GENECALLING differential gene expression analysis after dosing of serotonin modulating agents
Assay type: in vivo, Sprague Dawley rats
Settings: CARDIOTOX 17, GenBank M14050
Procedure: Control animals received sterile water or canola oil. The animals were sacrificed 24 hours following the last dose. Liver tissue was dissected from the animals, and total RNA was recovered from the dissected tissue. cDNA was prepared and the resulting samples were processed through using GENECALLING™ differential expression analysis as described in U.S. Pat. No. 5,871,697 and in Shimkets et al., Nature Biotechnology 17:798-803 (1999). […]
test-readout: Effects on Transcription Level: Immunoglobulin heavy chain binding protein (BiP)

[
  {
    "compound": "CCNC(C)Cc1cccc(C(F)(F)F)c1 (stereo not drawn)",
    "reported-measurement": "+2.0 fold"
  },
  {
    "compound": "CNCCC(Oc1ccc(C(F)(F)F)cc1)c1ccccc1 (stereo not drawn)",
    "reported-measurement": "+1.4 fold"
  },
  {
    "compound": "CN1C[C@H](C(=O)N[C@]2(C)O[C@@]3(O)[C@@H]4CCCN4C(=O)[C@H](Cc4ccccc4)N3C2=O)C[C@@H]2c3cccc4[nH]cc(c34)C[C@H]21 [dihydroergotamine]",
    "reported-measurement": "+1.2 fold"
  },
  {
    "compound": "CNS(=O)(=O)Cc1ccc2[nH]cc(CCN(C)C)c2c1",
    "reported-measurement": "+1.4 fold"
  },
  {
    "compound": "CC(C)CC(N(C)C)C1(c2ccc(Cl)cc2)CCC1 (stereo not drawn)",
    "reported-measurement": "−1.1 fold"
  },
  {
    "compound": "CCN[C@@H](C)Cc1cccc(C(F)(F)F)c1",
    "reported-measurement": "+1.4 fold"
  }
]
